// data source = PubChem BioAssay AID602179

- target_system: Isocitrate dehydrogenase [NADP] cytoplasmic (Homo sapiens)
- assay_text: qHTS for Inhibitors of mutant isocitrate dehydrogenase 1 (IDH1): qHTS; further: nearly all actives have a fitted effect of over 65% in size
- run_parameters: IDH1-R132H enzyme, NADPH consumption, diaphorase/resazurin fluorescence; series mostly up to 76.6 µM
The campaign covered roughly 390,000 compounds. About 360 (0.092%) were called active. Shown is part of a subset that was picked to be rich in actives.
quantity_measured: outcome

INSERT INTO measurements (compound, result) VALUES
  ('CCc1ccc(N(CC)C(=O)CCn2cnc3onc(-c4ccc(F)cc4)c3c2=O)cc1', 'inactive'),
  ('CCOC(=O)c1ccc(N2C(=O)c3n[nH]c(C)c3C2c2ccc(O)c(OC)c2)cc1 (stereo not given)', 'inactive'),
  ('CCCN(CCC)C(=O)Cn1c(=O)n(-c2ccc(Cl)cc2)c(=O)c2c3c(sc21)CCCCC3', 'inactive'),
  ('O=C(CSc1oc(-c2ccco2)nc1S(=O)(=O)c1ccccc1)c1ccc(Cl)cc1', 'inactive'),
  ('O=C(COc1ccccc1Cl)Nc1ccc2nc(SCC(=O)N3CCCC3)sc2c1', 'inactive');

---

- target_system: Isocitrate dehydrogenase [NADP] cytoplasmic (Homo sapiens) (UniProt O75874)
- Sequence (O75874 whole entry R132H, change not shown): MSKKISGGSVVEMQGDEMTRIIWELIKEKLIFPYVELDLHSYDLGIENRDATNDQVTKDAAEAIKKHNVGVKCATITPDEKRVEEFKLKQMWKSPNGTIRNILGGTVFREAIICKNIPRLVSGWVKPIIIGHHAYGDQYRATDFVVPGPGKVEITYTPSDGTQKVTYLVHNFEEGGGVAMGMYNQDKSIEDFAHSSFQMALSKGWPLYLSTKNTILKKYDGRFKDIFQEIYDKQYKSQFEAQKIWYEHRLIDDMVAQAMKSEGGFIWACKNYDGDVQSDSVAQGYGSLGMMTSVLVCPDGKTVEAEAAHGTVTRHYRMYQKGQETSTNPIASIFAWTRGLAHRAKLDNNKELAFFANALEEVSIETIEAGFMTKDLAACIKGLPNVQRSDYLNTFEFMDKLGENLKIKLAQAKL
- assay_text: qHTS for Inhibitors of mutant isocitrate dehydrogenase 1 (IDH1): qHTS; further: nearly all actives have a fitted effect of over 65% in size
- run_parameters: IDH1-R132H enzyme, NADPH consumption, diaphorase/resazurin fluorescence; series mostly up to 76.6 µM
Among all 390,000 compounds or so, about 360 (0.092%) were called active. Calls come from the whole dose curve; as a rule, active = well fitted inhibition curve with a large enough effect; inconclusive = small, poorly fitted or top-dose-only effect; inactive = no such curve, though single readings can be large or run the other way. What follows is part of a selection rich in actives, with near analogues and random picks from the rest.
Possible outcomes: active, inactive

INSERT INTO assay_data (compound, target_system, group_label) VALUES
  ('COc1cc2ccccc2cc1C(=O)Nc1cccc(-c2nc3ccccc3o2)c1', 'Isocitrate dehydrogenase [NADP] cytoplasmic (Homo sapiens) (UniProt O75874)', 'inactive'),
  ('COc1ccccc1NC(=O)CSc1oc(-c2ccco2)nc1S(=O)(=O)c1ccc(Br)cc1', 'Isocitrate dehydrogenase [NADP] cytoplasmic (Homo sapiens) (UniProt O75874)', 'inactive'),
  ('Cc1ccc2nc(/C(C#N)=C/c3ccc(-c4ccc(C(=O)OC(C)C)cc4)o3)[nH]c2c1', 'Isocitrate dehydrogenase [NADP] cytoplasmic (Homo sapiens) (UniProt O75874)', 'inactive'),
  ('O=C(c1ccccc1F)N1CCC(c2nc3c(nnn3Cc3cccc(F)c3)c(=O)[nH]2)CC1', 'Isocitrate dehydrogenase [NADP] cytoplasmic (Homo sapiens) (UniProt O75874)', 'inactive'),
  ('O=c1[nH]cnc2c1c(-c1ccccc1)cn2-c1ccc(F)cc1', 'Isocitrate dehydrogenase [NADP] cytoplasmic (Homo sapiens) (UniProt O75874)', 'inactive'),
  ('COc1cc(C(=O)N(Cc2ccc(C(C)C)cc2)C2CCS(=O)(=O)C2)cc(OC)c1OC (stereo unspecified)', 'Isocitrate dehydrogenase [NADP] cytoplasmic (Homo sapiens) (UniProt O75874)', 'inactive'),
  ('CCN(CCCNC(=O)Cn1ncc2c3ccccc3n(C)c2c1=O)Cc1ccccc1', 'Isocitrate dehydrogenase [NADP] cytoplasmic (Homo sapiens) (UniProt O75874)', 'inactive'),
  ('CCOc1ccc(Nc2oc(/C=C/c3ccc(F)cc3)nc2C#N)cc1', 'Isocitrate dehydrogenase [NADP] cytoplasmic (Homo sapiens) (UniProt O75874)', 'inactive'),
  ('Cc1c(NC(=O)Cc2ccccc2)cccc1-c1nc2cccnc2s1', 'Isocitrate dehydrogenase [NADP] cytoplasmic (Homo sapiens) (UniProt O75874)', 'inactive'),
  ('CCc1ccc(CNC(=O)c2cc3c(=O)n(CC)c4ccccc4c3s2)cc1', 'Isocitrate dehydrogenase [NADP] cytoplasmic (Homo sapiens) (UniProt O75874)', 'inactive'),
  ('CCc1ccc(S(=O)(=O)c2nnn3c2nc(N2CCN(CC)CC2)c2sccc23)cc1', 'Isocitrate dehydrogenase [NADP] cytoplasmic (Homo sapiens) (UniProt O75874)', 'inactive'),
  ('Cc1cccc(OCCCC(=O)Nc2sc3c(c2C(N)=O)CCC(C)C3)c1 (stereo unspecified)', 'Isocitrate dehydrogenase [NADP] cytoplasmic (Homo sapiens) (UniProt O75874)', 'inactive'),
  ('COc1ccccc1Nc1nc(N)nc(N)c1S(=O)(=O)c1ccccc1', 'Isocitrate dehydrogenase [NADP] cytoplasmic (Homo sapiens) (UniProt O75874)', 'inactive'),
  ('Cc1ccc(N2CC(C(=O)Nc3ccc(N(C)C)cc3)CC2=O)cc1Cl (stereo unspecified)', 'Isocitrate dehydrogenase [NADP] cytoplasmic (Homo sapiens) (UniProt O75874)', 'inactive'),
  ('Cc1ccc(CNC(=O)CSc2c3c(nc4cc(Cl)ccc24)CCCC3)cc1', 'Isocitrate dehydrogenase [NADP] cytoplasmic (Homo sapiens) (UniProt O75874)', 'inactive'),
  ('COc1cccc(-c2nc(CS(=O)(=O)CC(=O)N3CCN(c4cc(C)ccc4C)CC3)c(C)o2)c1', 'Isocitrate dehydrogenase [NADP] cytoplasmic (Homo sapiens) (UniProt O75874)', 'inactive'),
  ('CCOc1ccc(N(CC)S(=O)(=O)N2CCCC(C(=O)NCc3ccc(SC)cc3)C2)cc1 (stereo unspecified)', 'Isocitrate dehydrogenase [NADP] cytoplasmic (Homo sapiens) (UniProt O75874)', 'inactive'),
  ('Cc1ccc(CSc2nc3cccnc3n2Cc2ccc(C(=O)NC3CC3)cc2)cc1', 'Isocitrate dehydrogenase [NADP] cytoplasmic (Homo sapiens) (UniProt O75874)', 'inactive'),
  ('Cc1ccccc1CCNC(=O)C1CCN(c2nc3ccccc3nc2C(F)(F)F)CC1', 'Isocitrate dehydrogenase [NADP] cytoplasmic (Homo sapiens) (UniProt O75874)', 'inactive'),
  ('CCOc1cccc(C(=O)Nc2nnc(S(=O)(=O)N(C)c3ccc(C)cc3)s2)c1', 'Isocitrate dehydrogenase [NADP] cytoplasmic (Homo sapiens) (UniProt O75874)', 'inactive'),
  ('CCCNc1ncnc2c1c(-c1ccccc1)cn2-c1ccc(OCC)cc1', 'Isocitrate dehydrogenase [NADP] cytoplasmic (Homo sapiens) (UniProt O75874)', 'active');
